- target-under-test: CCR-3 (Homo sapiens, UniProt P51677)
- Sequence (P51677 whole entry): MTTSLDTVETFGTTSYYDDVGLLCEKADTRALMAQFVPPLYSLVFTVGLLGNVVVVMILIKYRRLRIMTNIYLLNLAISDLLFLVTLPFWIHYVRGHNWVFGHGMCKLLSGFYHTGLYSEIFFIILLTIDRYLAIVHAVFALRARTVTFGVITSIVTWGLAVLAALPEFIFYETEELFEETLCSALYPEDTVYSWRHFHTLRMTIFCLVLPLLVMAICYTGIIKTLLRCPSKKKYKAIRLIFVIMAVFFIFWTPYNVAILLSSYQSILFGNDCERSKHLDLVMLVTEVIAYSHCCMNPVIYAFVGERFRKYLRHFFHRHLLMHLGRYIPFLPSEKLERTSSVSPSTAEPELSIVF
- procedure-summary: Inhibition of eotaxin-induced chemotaxis of CCR-3 transfectant cells (CCR3/U937)
- Assay type: cell-based
- Set-up: expressed in transfected cells; host or cells: U937
- experimental-context: compound 10 μM, eotaxin 1×10^−9 M, Table 3a
readout-kind: Chemotaxis Assay 10 μM (inhibition %)

Before answering, review these 2 worked examples.
[
  {
    "molecule": "COC(=O)CCCN(CC[C@H](NC(=O)Nc1ccc(Br)cc1)C(=O)NCc1ccccc1)C1CCCc2ccccc21 (stereo partly shown) [Compound 283]",
    "readout-kind": "Chemotaxis Assay 10 μM (inhibition %)",
    "unit-of-measurement": "%",
    "experimental-result": 100
  },
  {
    "molecule": "O=C(NCCCN(CCc1ccc(Cl)cc1)Cc1cccnc1)Nc1ccccc1 [Compound 23]",
    "readout-kind": "Chemotaxis Assay 10 μM (inhibition %)",
    "unit-of-measurement": "%",
    "experimental-result": 82
  }
]

[I] O=C(O)CCCN(CCCNC(=S)Nc1cccc(Cl)c1)C1CCCc2ccccc21 (stereo not shown) [Compound 248]
[II] COC(=O)CCCN(CCNC(=O)Nc1ccc(Br)cc1)C1CCCc2ccccc21 (stereo not shown) [Compound 50]
Lookup: Of I and II , whose reported Chemotaxis Assay 10 μM (inhibition %) is the larger number? Pick one; state its label.
Found: I
(I: 100%, II: 54%)
